- measurementSetup: human gut metagenome, 24 h, 2 µM; also: call rule not given here
quantityMeasured: Bacterial Biotransformation

Example cases with answers are listed next.
>  <compound>
CN(C)CCOC(C)(c1ccccc1)c1ccccn1.O=C(O)CCC(=O)O (stereo unspecified) [DOXYLAMINE SUCCINATE]

>  <Bacterial Biotransformation>
Compound NOT metabolized

$$$$
>  <compound>
CN1CCC(=C2c3ccccc3CC(=O)c3sccc32)CC1.O=C(O)/C=C/C(=O)O [KETOTIFEN FUMARATE]

>  <Bacterial Biotransformation>
Compound NOT metabolized

$$$$
>  <compound>
CCOC(=O)C1=C[C@]2(CC)CCCN3CCc4c(n1c1ccccc41)[C@@H]32 [VINPOCETINE]

>  <Bacterial Biotransformation>
Compound NOT metabolized

$$$$
>  <compound>
Cc1ccccc1C(OCCN(C)C)c1ccccc1.O=C(O)CC(O)(CC(=O)O)C(=O)O (stereo unspecified) [ORPHENADRINE CITRATE]

>  <Bacterial Biotransformation>
Compound NOT metabolized

$$$$
>  <compound>
CCN(CC)CCOC(=O)C1(C2CCCCC2)CCCCC1 [DICYCLOMINE]

>  <Bacterial Biotransformation>
Compound metabolized

$$$$
>  <compound>
Nc1nc(NC2CC2)c2ncn([C@H]3C=C[C@@H](CO)C3)c2n1.Nc1nc(NC2CC2)c2ncn([C@H]3C=C[C@@H](CO)C3)c2n1.O=S(=O)(O)O [ABACAVIR SULFATE]

>  <Bacterial Biotransformation>
Compound metabolized

$$$$
>  <compound>
COc1ccnc(C[S+]([O-])c2nc3ccc(OC(F)F)cc3[nH]2)c1OC (stereo unspecified) [PANTOPRAZOLE]

>  <Bacterial Biotransformation>
Compound metabolized

$$$$
>  <compound>
CCOC(=O)C1=C(C)NC(C)=C(C(=O)OC)C1c1cccc([N+](=O)[O-])c1 (stereo unspecified) [NITRENDIPINE]

>  <Bacterial Biotransformation>
Compound metabolized

$$$$
>  <compound>
CC(=O)CCCCn1c(=O)c2c(ncn2C)n(C)c1=O [PENTOXIFYLLINE]

>  <Bacterial Biotransformation>
Compound NOT metabolized

$$$$
>  <compound>
CC(=O)O[C@]1(C(C)=O)CC[C@H]2[C@@H]3C=C(C)C4=CC(=O)CC[C@]4(C)[C@H]3CC[C@@]21C [MEGESTROL ACETATE]

>  <Bacterial Biotransformation>
Compound metabolized

$$$$

Give the value of Bacterial Biotransformation reported for the following: CCN(CC)CCNC(=O)c1cc(S(C)(=O)=O)ccc1OC [TIAPRIDE]
Compound NOT metabolized

Give the value of Bacterial Biotransformation reported for the following: COc1cc(NC(C)CCCN)c2ncccc2c1.O=P(O)(O)O.O=P(O)(O)O (stereo unspecified) [PRIMAQUINE PHOSPHATE]
Compound NOT metabolized

Give the value of Bacterial Biotransformation reported for the following: CCc1oc2ccccc2c1C(=O)c1cc(Br)c(O)c(Br)c1 [BENZBROMARONE]
Compound NOT metabolized

Hello, the source for this data is ChEMBL document CHEMBL5724914, in case you need it.
